- MEASURED TARGET: EGFR del19/T790M/C797S (Homo sapiens, UniProt P00533, C797S/DEL746-750/T790M)
- Sequence (P00533 with tags, fused parts or gaps DEL746-750/T790M/C797S): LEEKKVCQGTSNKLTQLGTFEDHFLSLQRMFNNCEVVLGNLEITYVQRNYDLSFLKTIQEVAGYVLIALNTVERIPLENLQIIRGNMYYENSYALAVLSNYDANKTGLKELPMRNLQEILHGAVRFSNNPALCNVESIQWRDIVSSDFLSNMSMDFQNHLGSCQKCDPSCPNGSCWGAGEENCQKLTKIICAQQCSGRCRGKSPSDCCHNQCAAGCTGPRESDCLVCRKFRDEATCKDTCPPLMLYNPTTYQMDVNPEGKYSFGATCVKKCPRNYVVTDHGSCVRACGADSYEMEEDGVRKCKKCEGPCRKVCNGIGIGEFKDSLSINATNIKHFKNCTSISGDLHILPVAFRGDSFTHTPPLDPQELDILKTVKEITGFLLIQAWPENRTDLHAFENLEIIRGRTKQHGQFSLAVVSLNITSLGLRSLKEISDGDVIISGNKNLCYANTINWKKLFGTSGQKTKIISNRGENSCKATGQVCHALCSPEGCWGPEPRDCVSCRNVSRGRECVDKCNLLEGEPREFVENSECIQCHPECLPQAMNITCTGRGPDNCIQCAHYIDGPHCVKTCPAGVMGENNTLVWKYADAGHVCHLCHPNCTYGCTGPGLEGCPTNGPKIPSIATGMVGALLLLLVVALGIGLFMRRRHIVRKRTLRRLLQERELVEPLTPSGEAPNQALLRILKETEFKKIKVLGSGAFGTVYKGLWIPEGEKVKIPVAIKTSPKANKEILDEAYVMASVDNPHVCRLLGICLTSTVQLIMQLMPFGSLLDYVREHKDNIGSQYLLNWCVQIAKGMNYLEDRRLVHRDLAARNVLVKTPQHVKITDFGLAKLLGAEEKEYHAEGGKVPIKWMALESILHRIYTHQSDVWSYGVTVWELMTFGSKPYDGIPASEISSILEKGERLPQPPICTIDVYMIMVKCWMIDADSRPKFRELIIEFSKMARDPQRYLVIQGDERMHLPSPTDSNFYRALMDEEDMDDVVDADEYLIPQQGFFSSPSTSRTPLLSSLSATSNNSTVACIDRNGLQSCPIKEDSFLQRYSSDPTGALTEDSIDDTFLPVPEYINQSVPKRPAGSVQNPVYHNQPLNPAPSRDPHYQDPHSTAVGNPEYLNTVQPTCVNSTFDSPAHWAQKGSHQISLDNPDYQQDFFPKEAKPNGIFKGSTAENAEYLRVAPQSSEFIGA
- PROTOCOL NOTES: Biochemical EGFR kinase assay (Lance Ultra TR-FRET), triple mutant del19/T790M/C797S
- CONDITIONS USED: Km ATP; read-out: IC50 del19/T790M/C797S (nM) Km ATP
METRIC NAME: log10 of IC50 (log10 of the value in nM)
The figures below represent log10 of IC50, where IC50 is stated in nM.

Reference set, count: 5
Cn1nc(-c2cnc(Nc3ccnc(-c4cnn(S(=O)(=O)C5CC5)c4)n3)cc2N[C@H]2CC[C@@H](CN3CCC3)CC2)cc1C(F)(F)F    0.23
O=S(=O)(C1CC1)n1cc(-c2nccc(Nc3cc(NCC4CCC(O)C4)c(-c4ccn(C(F)F)n4)cn3)n2)cn1 (stereo not drawn)    -0.30
O=S(=O)(C1CC1)n1cc(-c2nccc(Nc3cc(N[C@H]4CC[C@@H](F)CC4)c(-c4ccn(CC(F)(F)F)n4)cn3)n2)cn1    0.90
CC1(O)CCC(Nc2cc(Nc3ccnc(-c4cnn(C5CCCO5)c4)n3)ncc2-c2ccn(C(F)F)n2)CC1 (stereo not drawn)    0.56
O=S(=O)(C1CC1)n1cc(-c2nccc(Nc3cc(NC4CCCC(F)C4)c(-c4ccn(C(F)F)n4)cn3)n2)cn1 (stereo not drawn)    0.32

Next molecule, log10 of IC50 to be filled in.
Short answer on EGFR del19/T790M/C797S (Homo sapiens, UniProt P00533, C797S/DEL746-750/T790M) for O=S(=O)(C1CC1)n1cc(-c2nccc(Nc3cc(NC4CC5CC(O)C4C5)c(-c4ccn(C(F)F)n4)cn3)n2)cn1 (stereo not drawn) , log10 of IC50: 0.20

---

- MEASURED TARGET: EGFR L858R/C797S (Homo sapiens, UniProt P00533, C797S/L858R)
- Sequence (P00533 25-1210 C797S/L858R): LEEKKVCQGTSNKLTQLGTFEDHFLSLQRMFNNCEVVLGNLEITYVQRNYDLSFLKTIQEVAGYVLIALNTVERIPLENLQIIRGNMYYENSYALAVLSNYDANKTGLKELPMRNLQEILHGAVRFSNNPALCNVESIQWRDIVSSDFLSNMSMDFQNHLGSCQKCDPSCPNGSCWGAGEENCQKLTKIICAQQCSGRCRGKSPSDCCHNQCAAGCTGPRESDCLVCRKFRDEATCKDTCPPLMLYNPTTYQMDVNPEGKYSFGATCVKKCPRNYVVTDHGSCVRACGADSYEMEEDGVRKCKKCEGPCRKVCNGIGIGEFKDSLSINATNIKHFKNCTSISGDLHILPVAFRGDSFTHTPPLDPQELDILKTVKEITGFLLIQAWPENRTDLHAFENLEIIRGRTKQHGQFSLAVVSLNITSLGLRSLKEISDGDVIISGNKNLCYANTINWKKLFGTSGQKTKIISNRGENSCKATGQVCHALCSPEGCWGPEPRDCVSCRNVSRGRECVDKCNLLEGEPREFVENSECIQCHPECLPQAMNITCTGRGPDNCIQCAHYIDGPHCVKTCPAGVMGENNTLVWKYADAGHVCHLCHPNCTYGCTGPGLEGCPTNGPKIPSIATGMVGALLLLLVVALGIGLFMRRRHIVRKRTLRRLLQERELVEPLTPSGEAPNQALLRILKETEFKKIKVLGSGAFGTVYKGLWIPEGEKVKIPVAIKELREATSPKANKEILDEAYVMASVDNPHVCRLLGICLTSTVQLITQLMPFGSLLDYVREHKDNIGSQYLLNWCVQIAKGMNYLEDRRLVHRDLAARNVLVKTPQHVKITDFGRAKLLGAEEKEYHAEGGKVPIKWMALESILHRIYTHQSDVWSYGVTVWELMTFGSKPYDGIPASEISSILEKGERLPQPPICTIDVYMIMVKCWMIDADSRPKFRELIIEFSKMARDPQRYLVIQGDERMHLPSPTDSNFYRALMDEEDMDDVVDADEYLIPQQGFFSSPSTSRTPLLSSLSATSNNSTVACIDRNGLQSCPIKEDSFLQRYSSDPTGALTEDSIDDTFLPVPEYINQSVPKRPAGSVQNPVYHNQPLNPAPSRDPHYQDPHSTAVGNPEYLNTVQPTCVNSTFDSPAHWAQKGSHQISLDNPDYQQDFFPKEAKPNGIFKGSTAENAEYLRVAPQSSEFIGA
- PROTOCOL NOTES: Biochemical EGFR kinase assay (Lance Ultra TR-FRET), double mutant L858R/C797S
- CONDITIONS USED: IC50 L858R/C797S (nM) 100 μM ATP, 100 μM ATP
METRIC NAME: IC50 (nM)
Entry rule: numbers only, all in nM.

Reference set, count: 2
C[C@]1(O)CC[C@@H](Nc2cc(Nc3ccnc(-c4cnn(C5CC5)c4)n3)ncc2-c2ccn(C(F)F)n2)CC1 [Example 140]    91.5
C[C@]1(O)CC[C@H](CNc2cc(Nc3ccnc(-c4cnn(S(=O)(=O)C5CC5)c4)n3)ncc2-c2ccn(C(F)F)n2)CC1 [Example 36]    33.8

// field: IC50; key: O=S(=O)(C1CC1)n1cc(-c2nccc(Nc3cc(NC[C@H]4CC[C@@H](O)C4)c(-c4ccn(C(F)F)n4)cn3)n2)cn1 [Example 119] ; value = 15.1

---

- MEASURED TARGET: EGFR L858R/C797S (Homo sapiens, UniProt P00533, C797S/L858R)
- PROTOCOL NOTES: Biochemical EGFR kinase assay (Lance Ultra TR-FRET), double mutant L858R/C797S
- CONDITIONS USED: read-out: IC50 L858R/C797S (nM) 100 μM ATP; 100 μM ATP
METRIC NAME: IC50 (nM)
Entry rule: numbers only, all in nM.

O=S(=O)(C1CC1)n1cc(-c2nccc(Nc3cc(NC[C@H]4CC[C@H](NCC(F)F)CC4)c(-c4ccn(C(F)F)n4)cn3)n2)cn1 [Example 130]    96.5

// field: IC50; key: CS(=O)(=O)n1cc(-c2nccc(Nc3cc(N[C@H]4CC[C@@](C)(O)CC4)c(-c4ccn(C(F)F)n4)cn3)n2)cn1 [Example 112] ; value = 60.7

// field: IC50; key: Cn1ccc(-c2cnc(Nc3ccnc(-c4cnn(S(=O)(=O)C5CC5)c4)n3)cc2N[C@H]2CC[C@](O)(C(F)(F)F)CC2)n1 [Example 94] ; value = 58.1

---

- MEASURED TARGET: EGFR del19/C797S (Homo sapiens, UniProt P00533, C797S/DEL746-750)
- Sequence (P00533 with tags, fused parts or gaps DEL746-750/C797S): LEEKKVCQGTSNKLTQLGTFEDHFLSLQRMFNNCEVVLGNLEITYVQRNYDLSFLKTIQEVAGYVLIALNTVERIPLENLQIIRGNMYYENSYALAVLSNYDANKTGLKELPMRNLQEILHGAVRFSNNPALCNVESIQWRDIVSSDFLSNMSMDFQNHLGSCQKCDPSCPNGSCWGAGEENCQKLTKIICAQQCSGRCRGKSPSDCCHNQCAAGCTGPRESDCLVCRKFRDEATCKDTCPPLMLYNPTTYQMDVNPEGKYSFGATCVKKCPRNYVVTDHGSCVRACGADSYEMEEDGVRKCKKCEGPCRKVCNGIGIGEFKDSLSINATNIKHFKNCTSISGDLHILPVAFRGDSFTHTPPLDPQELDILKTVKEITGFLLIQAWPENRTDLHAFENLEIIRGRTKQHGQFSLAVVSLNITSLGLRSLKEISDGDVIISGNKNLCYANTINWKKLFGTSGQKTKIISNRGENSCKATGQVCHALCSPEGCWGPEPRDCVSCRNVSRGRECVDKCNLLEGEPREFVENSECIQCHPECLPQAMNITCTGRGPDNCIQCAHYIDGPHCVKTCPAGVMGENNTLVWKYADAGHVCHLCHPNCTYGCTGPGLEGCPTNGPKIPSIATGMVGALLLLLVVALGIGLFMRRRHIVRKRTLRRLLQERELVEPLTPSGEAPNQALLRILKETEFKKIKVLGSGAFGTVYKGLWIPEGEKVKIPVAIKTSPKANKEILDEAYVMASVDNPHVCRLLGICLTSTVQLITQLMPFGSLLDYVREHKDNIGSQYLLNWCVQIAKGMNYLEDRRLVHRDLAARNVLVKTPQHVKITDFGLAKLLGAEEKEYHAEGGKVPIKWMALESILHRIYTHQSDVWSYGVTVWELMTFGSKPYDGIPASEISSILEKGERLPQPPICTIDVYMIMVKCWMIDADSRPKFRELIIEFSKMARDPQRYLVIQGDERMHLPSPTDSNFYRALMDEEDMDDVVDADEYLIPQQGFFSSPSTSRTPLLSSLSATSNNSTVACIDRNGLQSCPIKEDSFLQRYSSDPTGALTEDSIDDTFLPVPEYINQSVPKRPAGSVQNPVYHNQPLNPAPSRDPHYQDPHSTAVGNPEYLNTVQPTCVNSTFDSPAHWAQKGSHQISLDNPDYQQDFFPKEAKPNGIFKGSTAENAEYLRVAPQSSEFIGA
- PROTOCOL NOTES: Biochemical EGFR kinase assay (Lance Ultra TR-FRET), double mutant del19/C797S
- CONDITIONS USED: Km ATP; read-out: IC50 del19/C797S (nM) Km ATP
- Procedure: Biochemical EGFR kinase assays were conducted using Lance Ultra time-resolved fluorescence resonance energy transfer (TR-FRET) technology from Perkin-Elmer. […] Each kinase reactions were incubated at room temperature for 1 hour and then stopped by the addition of 4 μL of stop solution (10 mM EDTA). […] After 60 minutes incubation at room temperature the LANCE signal was measured on an EnVision Multilabel Reader (Perkin-Elmer). […]
// returns condition not met unless IC50 is strictly below 0.7 nM, in which case condition met

Some solved cases for reference:
Cc1nn(-c2cnc(Nc3ccnc(-c4cnn(S(=O)(=O)C5CC5)c4)n3)cc2N[C@H]2CC[C@@](C)(O)CC2)cc1C(F)(F)F    condition not met
Cc1nn(CC(F)(F)F)cc1-c1nccc(Nc2cc(N[C@H]3CC[C@@H](CCO)CC3)c(-c3ccn(C(F)F)n3)cn2)n1    condition not met
CN[C@H]1CC[C@H](CNc2cc(Nc3ccnc(-c4cnn(S(=O)(=O)C5CC5)c4)n3)ncc2-c2ccn(C(F)F)n2)CC1    condition met
O=S(=O)(C1CC1)n1cc(-c2nccc(Nc3cc(NC4CCCC(F)C4)c(-c4ccn(C(F)F)n4)cn3)n2)cn1 (stereo not shown)    condition not met
C[C@]1(O)CC[C@@H](Nc2cc(Nc3ccnc(-c4cnn(S(=O)(=O)C5CC5)c4)n3)ncc2-c2cn3c(n2)CCC3)CC1    condition met
COc1ccc(-c2nccc(Nc3cc(N[C@H]4CC[C@@](C)(O)CC4)c(-c4ccn(C(F)F)n4)cn3)n2)c(F)n1    condition not met
Cn1ccc(-c2cnc(Nc3ccnc(-c4cnn(S(=O)(=O)C5CC5)c4)n3)cc2N[C@H]2CC[C@@H](F)CC2)n1    condition not met
CN(C)C(=O)C[C@H]1CC[C@@H](Nc2cc(Nc3ccnc(-c4cnn(S(=O)(=O)C5CC5)c4)n3)ncc2-c2ccn(C)n2)CC1    condition met

Q. Strictly below 0.7 nM in IC50? Cn1ccc(-c2cnc(Nc3ccnc(-c4cnn(S(=O)(=O)C5CC5)c4)n3)cc2N[C@H]2CC[C@@H](CCO)CC2)n1
A. condition met

Q. Strictly below 0.7 nM in IC50? CC(C)c1cc(-c2cnc(Nc3ccnc(-c4cnn(S(=O)(=O)C5CC5)c4)n3)cc2N[C@H]2CC[C@@](C)(O)CC2)on1
A. condition not met

Q. Strictly below 0.7 nM in IC50? CC(C)(O)[C@H]1CC[C@@H](Nc2cc(Nc3ccnc(-c4cnn(S(=O)(=O)C5CC5)c4)n3)ncc2-c2cc3n(n2)CCCC3)CC1
A. condition not met

Q. Strictly below 0.7 nM in IC50? Cc1ccn(-c2cnc(Nc3ccnc(-c4cnn(S(=O)(=O)C5CC5)c4)n3)cc2N[C@H]2CC[C@@](C)(O)CC2)n1
A. condition not met

---

List of IC50 values.
- MEASURED TARGET: EGFR wildtype (WT) (Homo sapiens)
- Sequence (P00533 25-1210): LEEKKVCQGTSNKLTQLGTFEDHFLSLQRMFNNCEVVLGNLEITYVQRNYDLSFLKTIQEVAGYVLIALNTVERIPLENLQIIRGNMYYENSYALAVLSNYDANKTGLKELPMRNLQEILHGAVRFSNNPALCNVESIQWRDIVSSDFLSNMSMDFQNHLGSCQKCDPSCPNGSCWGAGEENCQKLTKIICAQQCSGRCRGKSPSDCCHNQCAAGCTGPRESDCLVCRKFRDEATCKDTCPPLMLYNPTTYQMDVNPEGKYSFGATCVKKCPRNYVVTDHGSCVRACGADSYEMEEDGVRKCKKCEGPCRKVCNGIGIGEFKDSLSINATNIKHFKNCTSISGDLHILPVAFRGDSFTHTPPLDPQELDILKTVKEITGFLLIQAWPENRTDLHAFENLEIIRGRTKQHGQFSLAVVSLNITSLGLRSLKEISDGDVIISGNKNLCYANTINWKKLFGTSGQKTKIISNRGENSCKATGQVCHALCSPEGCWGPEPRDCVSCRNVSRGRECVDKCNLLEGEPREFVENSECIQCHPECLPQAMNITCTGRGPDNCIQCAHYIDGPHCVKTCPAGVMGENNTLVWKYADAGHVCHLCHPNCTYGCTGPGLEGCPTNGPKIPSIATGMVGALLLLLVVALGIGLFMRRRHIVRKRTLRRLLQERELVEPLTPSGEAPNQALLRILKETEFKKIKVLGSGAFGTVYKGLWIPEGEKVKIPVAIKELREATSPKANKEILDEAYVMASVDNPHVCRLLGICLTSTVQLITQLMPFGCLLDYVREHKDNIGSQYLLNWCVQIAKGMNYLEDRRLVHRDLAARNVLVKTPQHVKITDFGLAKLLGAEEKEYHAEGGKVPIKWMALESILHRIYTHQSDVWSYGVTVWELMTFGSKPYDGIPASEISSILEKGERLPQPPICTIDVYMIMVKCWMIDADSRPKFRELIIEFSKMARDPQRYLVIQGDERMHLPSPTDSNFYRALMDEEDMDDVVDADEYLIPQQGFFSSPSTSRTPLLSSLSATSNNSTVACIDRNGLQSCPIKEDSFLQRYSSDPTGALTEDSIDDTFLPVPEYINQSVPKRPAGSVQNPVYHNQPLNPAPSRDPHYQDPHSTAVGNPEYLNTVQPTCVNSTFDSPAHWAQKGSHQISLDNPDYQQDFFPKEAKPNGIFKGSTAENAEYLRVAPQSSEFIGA
- PROTOCOL NOTES: Biochemical EGFR kinase assay (Lance Ultra TR-FRET), wildtype
- CONDITIONS USED: Km ATP; read-out: IC50 WT (nM) Km ATP
Entry rule: numbers only, all in nM.

O=S(=O)(C1CC1)n1cc(-c2nccc(Nc3cc(NC4CCCN(CCF)C4)c(-c4ccn(C(F)F)n4)cn3)n2)cn1 (stereo not drawn)    233
C[C@]1(O)CC[C@@H](Nc2cc(Nc3ccnc(-c4cnn(C5CC5)c4)n3)ncc2-c2ccn(C(F)F)n2)CC1    137
CN1CC(Nc2cc(Nc3ccnc(-c4cnn(S(=O)(=O)C5CC5)c4)n3)ncc2-c2ccn(C(F)F)n2)CCC1=O (stereo not drawn)    108
CN(C)CC1(C)CCC(Nc2cc(Nc3ccnc(-c4cnn(S(=O)(=O)C5CC5)c4)n3)ncc2-c2ccn(CC(F)F)n2)CC1 (stereo not drawn)    15.4

// field: IC50; key: C[C@]1(O)CC[C@@H](Nc2cc(Nc3ccnc(-c4cnn(S(=O)(=O)N5CC(F)C5)c4)n3)ncc2-c2ccn(C(F)F)n2)CC1 ; value = 55.5

// field: IC50; key: O=C1CC[C@]2(CC[C@H](Nc3cc(Nc4ccnc(-c5cnn(S(=O)(=O)C6CC6)c5)n4)ncc3-c3ccn(C(F)F)n3)CC2)N1 ; value = 10

---

List of pIC50 values.
- MEASURED TARGET: EGFR del19/C797S (Homo sapiens, UniProt P00533, C797S/DEL746-750)
- PROTOCOL NOTES: Biochemical EGFR kinase assay (Lance Ultra TR-FRET), double mutant del19/C797S
- CONDITIONS USED: Km ATP; read-out: IC50 del19/C797S, Km ATP
Quick note: pIC50 means taking -log10 of the concentration in moles per liter.

Reference set, count: 3
C[C@]1(O)CC[C@@H](Nc2cc(Nc3ccnc(-c4cnn(S(=O)(=O)C5CC5)c4)n3)ncc2-n2cccn2)CC1 [Example 376]    8.22
O=S(=O)(C1CC1)n1cc(-c2cc(Nc3ncc(-c4ccn(C(F)F)n4)c(N[C@H]4CC[C@@H](CO)CC4)n3)ccn2)cn1 [Example 364]    8.10
Cn1nc(-c2cnc(Nc3ccnc(-c4cnn(CC(F)F)c4)c3)nc2N[C@H]2CC[C@@](C)(O)CC2)cc1C(F)(F)F [Example 361]    7.85

Next compound, pIC50 to be filled in.
// field: pIC50; key: Cc1nn(CC(F)(F)F)cc1-c1nccc(Nc2cc(N[C@H]3CC[C@@](C)(O)CC3)c(-c3cc(C(F)(F)F)n(C)n3)cn2)n1 [Example 332] ; value = 8.00

Where do the numbers come from? From patent US12258327B2.
